# target under test: UniProt C3SWJ7
# Sequence (C3SWJ7 whole entry): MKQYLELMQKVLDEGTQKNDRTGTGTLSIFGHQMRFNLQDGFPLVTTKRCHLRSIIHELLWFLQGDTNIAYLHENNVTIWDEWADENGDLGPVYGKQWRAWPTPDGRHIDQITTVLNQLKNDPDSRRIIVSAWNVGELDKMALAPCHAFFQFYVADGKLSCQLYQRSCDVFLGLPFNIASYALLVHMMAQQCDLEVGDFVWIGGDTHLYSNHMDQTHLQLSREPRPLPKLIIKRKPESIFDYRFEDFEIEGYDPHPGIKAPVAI
# method notes: Tested for inhibition against thymidylate synthase (TS) in Escherichia coli
experimental endpoint: IC50 (µM)

[a] Cc1cc(C)c2c(c1)-c1c(nc(N)[nH]c1=O)CC2
[b] Nc1nc2c(c(=O)[nH]1)-c1ccc3ccccc3c1CC2
query: Would you let me know which has the greater IC50 value, a or b ? // output: label of the selected item
result: b

* * *

Form: system (Thymidylate synthase (Homo sapiens)), quantity (IC50), values below.
experimental endpoint: IC50 (µM)

Some solved entries appear below for comparison.
Nc1nc2ccc3c(Cl)cccc3c2c(=O)[nH]1 26
Nc1ccc2c(c1)-c1c(nc(N)[nH]c1=O)CC2 13.5
Nc1nc2ccc3cc(F)cc([N+](=O)[O-])c3c2c(=O)[nH]1 34.5
COCc1cc2nc(N)nc(O)c2c2ccccc12 15
Cc1nc2c(c(=O)[nH]1)-c1cccc(Cl)c1CC2 193

[A] CCSc1ccc2ccc3nc(N)nc(O)c3c2c1
[B] Nc1nc2ccc3ccccc3c2c(=O)[nH]1
[C] Nc1ccc2c(ccc3nc(N)nc(O)c32)c1
[D] Nc1nc2ccc3cc(Cl)ccc3c2c(=O)[nH]1
query: Number of compounds to sort: 4. Sort criterion: IC50, ascending. Lab note: final answer is the ordered label list.
result: B, A, C, D
(B: 1.08 µM, A: 3.28 µM, C: 7.5 µM, D: 45.4 µM)

Provenance of the data: ChEMBL document CHEMBL1126757
